Listing of recorded TGI by entry.
Test system: NCI-H460 lung
Assay: NCI tumour cell line growth inhibition, 48 h

Known TGI results, listed for orientation:
• CN(C)CCNC(=O)c1ccc2oc3cc4ccccc4c(=O)n3c2c1 = > 100 µM
• NC(CCCCNCc1ccccc1)C(=O)O (stereo unspecified) = > 100 µM
• Cc1ccsc1C(=S)Nc1ccc(Cl)c(/C=N/OC(C)C)c1 = > 100 µM

Q: Please look up its TGI: Cc1ccsc1-c1ccc2c(c1)COC2(CCCN(C)C)c1ccc(F)cc1 (stereo unspecified)
A: 3.49 µM

Q: Value lookup for TGI; key = CC(C)c1ccc(/C=C/c2cc(C(=O)NNC(=O)NC3CCCCC3)nc(=S)[nH]2)cc1
A: > 100 µM

Q: Need TGI, item O=C(Nc1cccc(C(=O)NCCCO)c1)/C(=C/c1ccccc1)NC(=O)c1ccccc1
A: > 100 µM

Q: Param item = CN(C)C=Nc1c(I)cc(I)c(CCC(=O)O)c1I ; retrieve measured TGI.
A: > 100 µM

Q: Which value of TGI has been reported for CC1=CC(=O)N(n2c(-c3ccccc3)n[nH]c2=O)C1=O in the records?
A: > 100 µM

Q: What value of TGI has been reported for the following molecule? CCOC(=O)C12CC(C)=C(C)CC1CCCc1ccccc12 (stereo unspecified)
A: 32.7 µM

Q: # get_value(readout='TGI', item= O=c1cccc2n1CC1CNC[C@H]2C1 )
A: > 100 µM

Q: Data request, read-out TGI, for O=CN1CCC23CC(O)CCC2C1Cc1cc(Oc2nnnn2-c2ccccc2)cc(O)c13 (stereo unspecified)
A: > 100 µM

----------
System: SF-295 CNS
Assay: NCI tumour cell line growth inhibition, 48 h
Reported TGI by item:

- NC(CCCCNCc1ccccc1)C(=O)O (stereo not given): > 100 µM
- COc1ccc(NC(=O)c2ccc(NC3=C(Cl)C(=O)N(Cc4ccccc4)C3=O)cc2)c(OC)c1: 99.1 µM
- O=C(O)Cc1ccc(N=Nc2c(O)c(C(=O)O)cc3ccccc23)cc1: > 100 µM
- CCCCCCCCCCCCSC(=S)c1c(C)[nH]n(CCCCCCCCCCCC)c1=O: > 100 µM
- Cc1ccc(C(=O)N/N=C(\N=Nc2ccccc2Cl)c2ccc(N(C)C)cc2)cc1: > 100 µM

Q: Bench note: what TGI did CC(C)c1ccc(/C=C/c2cc(C(=O)NNC(=O)NC3CCCCC3)nc(=S)[nH]2)cc1 show?
A: > 100 µM

Q: Entry under review: O=C1NC(=NCCc2ccccn2)S/C1=C\c1ccc2ncccc2c1 . Reported TGI?
A: > 25 µM

Q: Quick one: TGI for CCOC(=O)/C(=C\NC(C)(C)CO)c1nc2ccccc2[nH]1 ?
A: > 100 µM

Q: Could you tell me which TGI is on file for CCN(CC)Cc1cc(Nc2ccnc3ccc4nn(C)nc4c23)ccc1O ?
A: 29.1 µM

Q: # get_value(readout='TGI', item= Cc1ccc(C(=O)Oc2ccc(/C=C3\CCC/C(=C\c4ccc(OC(=O)c5ccc(C)cc5)cc4)C3=O)cc2)cc1 )
A: > 100 µM

----------
Tested on: A549 NSCLC
Test: NCI tumour cell line growth inhibition, 48 h
Residues, ends and D or L forms follow the SMILES beside them. *: point of attachment. Cbz = O=C(OCc1ccccc1)*
Known TGI of a selection of compounds

Guide cases for TGI, answers given:
- CCCN(CCC)c1ccc(C=O)c(C)c1: > 100 µM
- C=C1CC2(CCS(=O)(=O)c3ccccc32)OC1=O (stereo not drawn): 35.2 µM
- CCC1(c2ccc(N)cc2)CCC(=O)NC1=O (stereo not drawn): > 5000 µM

Q: Which measured TGI value corresponds to NC(N)=N/N=C/c1c(-c2cccnc2)nc2sc(Cl)cn12 ?
A: 40.1 µM

Q: Can you look up the measured TGI of CC(C)C[C@@H](C=O)NC(=O)[C@H](CC(C)C)NC(=O)[C@H](CC(C)C)NC(=O)OCc1ccccc1 (Cbz-Leu-Leu-Leu-aldehyde) for me?
A: 12.8 µM

Q: Please look up its TGI: COc1cc(/C=C/C(=O)c2c(-c3ccc(F)cc3)nc3sc(C)nn23)cc(OC)c1OC
A: 8.63 µM

----------
Tested on: SW-620 colon
Assay: NCI tumour cell line growth inhibition, 48 h
Quick reference: TGI of the listed items.
Record the value in µM, omitting the unit from your answer.

Some molecules with known TGI results, for comparison:
- Cn1c(-c2c(N)n(Cc3ccc(F)cc3)c3nc(C#N)c(C#N)nc23)nc2ccccc21: 21
- CN(C)c1ccccc1[CH2][Ga]([Cl])[CH2]c1ccccc1N(C)C: 3.92
- COc1ccc(OC)c(/C=C/c2ccnc3ccccc23)c1: 16.2

Q: What value of measured TGI is listed for NC(N)=Nc1ccc(/C=C2\C=Cc3ccccc32)cc1 ?
A: 3.82

----------
In this section we review reported TGI values for a set of molecules.
Test system: COLO 205 colon
Test: NCI tumour cell line growth inhibition, 48 h
# unit: µM | format: bare number

- C=CC(=O)Nc1cccc(Oc2nc(Nc3ccc(N4CCN(C)CC4)cc3OC)ncc2Cl)c1: 5.07
- O=S(=O)(NCCCNc1cc(-c2cn(-c3ccccc3)nc2-c2cccc(O)c2)ccn1)c1ccc(Br)cc1: 3.4

# input for lookup
Q: Bench note: what TGI did NC(N)=Nc1ccc(/C=C2\C=Cc3ccccc32)cc1 show?
A: 3.7

----------
System: MDA-N
Test: NCI tumour cell line growth inhibition, 48 h
The molecules listed here are annotated with their TGI.

• C/C(=C\C(=N\NC(=N)N)c1ccccc1)c1ccccc1 = 2.7 µM
• C=CC1(c2ccc3ccccc3c2)OCC(CC)O1 (stereo unspecified) = > 100 µM
• NC(=O)Cn1c(=O)oc2cc(C(=O)CN3CCOCC3)ccc21 = > 100 µM
• Cc1cc2c(cc1Cl)SC(NNC1=NCCN1)=NS2(=O)=O = > 10 µM

Q: Quick one: TGI of CN1CCN(Cc2nc3c(s2)CCc2sccc2-3)CC1 ?
A: > 100 µM

Q: For the molecule CC1(C)CCCCCCCCCC2CC2CCC(C)(C)C1=O (stereo unspecified) , what TGI is on record?
A: > 100 µM

Q: Request the reported TGI associated with CC(=O)Oc1ccc2cc(-c3ccc(OC(C)=O)c(OC(C)=O)c3)c(=O)oc2c1
A: > 100 µM

Q: Recorded TGI of O=[N+]([O-])c1oc2ccc3ccccc3c2c1CCO , please.
A: 4.07 µM

Q: Need TGI of Cc1ccc(C(=O)N/N=C(\N=Nc2ccccc2Cl)c2ccc(N(C)C)cc2)cc1 , thanks.
A: 34.5 µM

Q: Any idea what its TGI is? The molecule is C/C=C\C(CC(=O)OC)CC(=O)N(CCC1CN(S(=O)(=O)C(F)(F)F)c2ccccc21)Cc1ccc(OC)cc1OC (stereo unspecified)
A: > 100 µM

Q: TGI lookup needed for C=C(Cl)C(C)(Cl)CCC(Cl)C(C)C (stereo unspecified) , thanks.
A: > 100 µM

----------
System: HT29 colon
Assay: NCI tumour cell line growth inhibition, 48 h
measured_quantity: TGI

// below: answered compounds
* Nc1ncn([C@H]2C[C@H](OP(=O)(O)OC[C@H]3O[C@@H](n4cnc5c(=O)[nH]c(N)nc54)C[C@@H]3O)[C@@H](CO)O2)c(=O)n1 | > 100 µM
* Cc1ccc(C(=O)N/N=C(\N=Nc2ccccc2Cl)c2ccc(N(C)C)cc2)cc1 | > 100 µM
* CCOC(=O)c1cc(NS(=O)(=O)c2ccc(C)cc2)cc(C(=O)OCC)c1 | > 100 µM
* CC1=C(C(=O)CC(=O)C(=O)Nc2ccc(C)c(C)c2)Sc2ccccc2N1 | > 100 µM

Q: Query: TGI; subject: Cc1ccccc1Nc1nc(NNC(=O)Cc2ccccc2)nc(NNC(=O)c2ccncc2)n1
A: > 10 µM

Q: Recorded TGI of CCN(CCO)CCNc1ccc(C)c2sc3ccccc3c(=O)c12 , please.
A: 6.31 µM

Q: Returns the measured TGI for the input compound. Input: CN1CCN(Cc2nc3c(s2)CCc2sccc2-3)CC1
A: > 100 µM

----------
Tested on: OVCAR-8 ovarian
Experiment: NCI tumour cell line growth inhibition, 48 h
Below, each entry is listed with its recorded TGI.

- CCCCCCCCCCOC(=O)NCCC: > 100 µM
- Cc1ccc(S(=O)(=O)OCCOCCOCCOCCOCCOS(=O)(=O)c2ccc(C)cc2)cc1: 88 µM

Kindly consider the entry below.
Q: Can you share its TGI? I mean this molecule: O=c1[nH]c2c(c(=O)[nH]1)C(c1ccc([N+](=O)[O-])cc1)c1c([nH]c(=O)[nH]c1=O)O2
A: > 100 µM

----------
Here the recorded log10(TGI) is given for each entry.
System: UACC-62 melanoma
Experiment: NCI tumour cell line growth inhibition, 48 h
Heads up, the numbers here are log10 of TGI in µM units.

Known log10(TGI) results, listed for orientation:
• C(#CC1(Nc2ccccc2)CCN(Cc2ccccc2)CC1)C1(Nc2ccccc2)CCN(Cc2ccccc2)CC1 = 1.33
• CN(C)CCS(=O)(=O)Nc1cc(-c2ccc3ncc(C#N)c(Nc4ccc(F)c(Cl)c4)c3c2)cnc1Cl = -0.20
• Nc1cc(Cl)ccc1SSc1ccc(Cl)cc1N = 1.10
• CC[PH+](CC)CC.CC[PH+](CC)CC.[Au] = 1.28
• Cc1ccc(C(=O)N/N=C(\N=Nc2ccccc2Cl)c2ccc(N(C)C)cc2)cc1 = 1.25
• CN(C)CC1CCC/C(=C\c2ccccc2)C1=O (configuration not stated) = 1.31

Q: Value lookup for log10(TGI); key = COc1cc(C2CC(=O)Nc3c2c(C)nn3-c2nc3ccccc3[nH]2)cc(OC)c1O (configuration not stated)
A: 0.69

Q: Please look up its log10(TGI): CC1(C)CCC(C)(C)c2cc(NC(=O)c3ccc(C(=O)O)cc3)ccc21
A: 1.60

Q: Give the measured log10(TGI) of O=C(c1ccccc1)c1nc2ccc(C(F)(F)F)cc2nc1N1CCN(c2ccccc2)CC1 .
A: 1.64

Q: Name the recorded log10(TGI) for CCCCCCCCCCCCCCCCCC(=O)OCC1OC(OC)C(NC(=O)N(CCCl)N=O)C(O)C1O (configuration not stated) .
A: 1.37

Q: Data request, read-out log10(TGI), for COc1ccc2c(c1)CCCc1c-2nc2ccccc2c1N
A: 1.40

Q: What value of log10(TGI) has been reported for the following compound? NC(=O)CCSC(CC(=O)c1ccc(Cl)cc1)c1ccc(Cl)cc1 (configuration not stated)
A: 1.75
